Assay: Clearance in mouse at 1 mg, iv administered as single dose measured after 0.083 to 24 hrs by LC-MS analysis
Assay type: ADME, organism-based
Conditions: in vivo
Measured attribute: clearance (mL/min/kg)
# number only, unit mL/min/kg dropped from output

clearance reading for COc1cc2c(c(OC)n1)[C@]1(O)[C@H](O)[C@H](CN(C)C)[C@@H](c3ccccc3)[C@]1(c1ccc(C#N)cc1)O2 : 15.8

---

Test: Protein binding in human plasma
Type: ADME, cell-free
Conditions: read-out: PPB (converted)
Measured attribute: fraction unbound
Answer with a bare number; do not write a unit.

The compound listed as COc1cc2c(c(OC)n1)[C@]1(O)[C@H](O)[C@H](CN(C)C)[C@@H](c3ccccc3)[C@]1(c1ccc(C#N)cc1)O2 [ZOTATIFIN] has a reported fraction unbound of 0.332
